Numbers sourced from ChEMBL document CHEMBL3301361.

Field: logD. Provide a value for each of the molecules that follow.
Assay: physchem
Conditions: octan-1-ol/water, pH 7.4, LogD7.4
Numbers only.

See these solved cases before continuing.
Find the measured logD of CC(C)Cn1c(=O)n(C)c(=O)c2c(C(=O)N3C[C@H](O)CO3)c(Cc3c[nH]c4ncccc34)sc21 and report it.
2.04

Find the measured logD of C[C@H](Nc1ncc(Cl)c(Nc2cc(N(C)C)[nH]n2)n1)c1ncc(F)cn1 and report it.
2.33

Find the measured logD of Nc1nc(N)c2nc(-c3ccccc3)c(N)nc2n1 and report it.
1.16

Find the measured logD of COc1cc(N2CCN(C(C)=O)CC2)ccc1Nc1ncc(OC)c(-c2cnc3ccccn23)n1 and report it.
3.2

Find the measured logD of CC(=O)Nc1ccc2c(c1)c(-c1cc(NC3CC3)n3ncc(C#N)c3n1)cn2CCCO and report it.
2.48

Find the measured logD of COc1ccc2c(C)cc(N[C@H]3CC[C@H](NCc4cn(C)c5ccccc45)C3)nc2c1 and report it.
2.53

I need logD for every entry listed below, if you could help.
1. COc1cc2c(NC(=O)Nc3c(Cl)cccc3Cl)ncnc2cc1OCC1CCN(C)CC1
2. Cc1nc(C)c(-c2ccc3c(c2)CC[C@]32CC[C@@H](c3nnn[nH]3)CC2)nc1C(N)=O
3. CCN1CCO[C@@H](CN2CCN(C(=O)Nc3ccc(Cl)c(Cl)c3)CC2)C1
4. O=C(c1cccc(Cc2n[nH]c(=O)c3ccccc23)c1)N1CCN(c2ncccn2)CC1
5. O=C(NS(=O)(=O)c1ccc(Cl)cc1)N1CCC(N2CCC(Oc3ccc(Cl)c(Cl)c3)CC2)CC1
6. NC(N)=Nc1nc(CSCCC(N)=NS(N)(=O)=O)cs1
7. Cc1c(Cl)ccc(OC2CCN(C[C@H](O)CNC(=O)c3c[nH]c(=O)c4cc(S(C)(=O)=O)ccc34)CC2)c1Cl
8. Cc1cc2c(C(=O)NC[C@H](C)c3ccccc3)c(O)c(O)cc2c(O)c1-c1c(C)cc2c(C(=O)NC[C@H](C)c3ccccc3)c(O)c(O)cc2c1O

[2.7, 1.4, 2.68, 2.13, 2.59, -0.6, 2.83, 3.48]

====

Assay: in vitro
Conditions: human, liver microsomes
Field: microsomal CLint. Provide a value for each of the compounds that follow.
One number for each entry, in µL/min/mg.

See these solved cases before continuing.
Find the measured microsomal CLint of Cc1c(Sc2ccc(Cl)cc2)c2c(C#N)c(Cl)ccc2n1CC(=O)O and report it.
4

Find the measured microsomal CLint of CN1CCN(c2nc3ccccc3cc2Cn2nc(-c3ccc4nc(N)sc4c3)c3c(N)ncnc32)CC1 and report it.
72

Find the measured microsomal CLint of O=C(CC12CC3CC(CC(C3)C1)C2)Nc1c(Cl)ccc2nc(CN3CCN(CCO)CC3)ccc12 and report it.
79.5

Find the measured microsomal CLint of COc1nc(Cl)c(Cl)nc1NS(=O)(=O)c1ccc(Cl)s1 and report it.
10

Find the measured microsomal CLint of Cc1oc(-c2ccccc2)cc1C(=O)Nc1cccc(C(=O)O)c1 and report it.
4.17

# context switch: different compound, same microsomal CLint
Find the measured microsomal CLint of COc1ccc2c(c1)c(-c1ccnc3cc(Cl)ccc13)c(C)n2CC(=O)O and report it.
4

====

Assay: physchem
Conditions: octan-1-ol/water, pH 7.4, LogD7.4
Lab note: anything with logD below 3 is marked Satisfied; values at 3 or higher are marked Not satisfied.

Use the examples below as a reference point.
A record lists Cc1cc(C)cc(-c2[nH]c3ccc(C(C)(C)C(=O)N4C5CCC4CC5)cc3c2[C@H](C)CNCCc2ccncc2)c1 . Is its logD below 3?
Not satisfied

A record lists CCC(CC)C[C@H](c1ccc(C(=O)O)c(Oc2cccc(Cl)c2)c1)N1CCC[C@H](n2cc(C)c(=O)[nH]c2=O)C1 . Is its logD below 3?
Satisfied

A record lists O=C(CN1C2=NCCN2c2ccccc21)c1ccc(Cl)cc1 . Is its logD below 3?
Satisfied

A record lists CCN(C(=O)NCc1ccc(F)cc1)C1CCN(CCC(c2ccccc2)c2ccccc2)CC1 . Is its logD below 3?
Not satisfied

A record lists NS(=O)(=O)c1ccc(Nc2nccc(-c3ccccc3)n2)cc1 . Is its logD below 3?
Satisfied

A record lists C[C@H](CO)Nc1nc(SCc2cccc(F)c2F)nc2nc(N)sc12 . Is its logD below 3?
Not satisfied

More entries:
A record lists COc1nc(Br)cnc1NS(=O)(=O)c1ccc(Cl)s1 . Is its logD below 3?
Satisfied

A record lists O=C(CSc1ccccc1)N1CCN(C(=O)c2ccco2)CC1 . Is its logD below 3?
Satisfied

A record lists CCN(C(=O)Cc1ccc(S(C)(=O)=O)cc1)C1CCN(CCC(c2ccccc2)c2ccc(C#N)cc2)CC1 (stereo not given) . Is its logD below 3?
Satisfied

A record lists Nc1ccc(Cl)c(C(=O)NCC23CC4CC(CC(C4)C2)C3)c1 . Is its logD below 3?
Not satisfied
